The origin of these recorded values is the supplement of paper PMC10567573.

B1: APBB1IP (parent)
chain: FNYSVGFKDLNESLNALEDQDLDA

variants of: B1; assay: protein stability index of a GFP-peptide fusion (GPS, HEK-293T) (PSI 1-6); higher = more stable; conditions: c terminus: a fixed tail appended;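 note: lentivirally expressed fusions sorted by FACS into six bins by GFP to DsRed ratio, PSI derived from sequencing read proportions per bin multiplied by bin number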
measurement-type: protein stability index

Illustrative cases are given below, each with its answer.
- residue-codes: "FNYSVGFKDLNGSLNALEDQDLDA [E12G]"
  protein stability index: 4.2
- residue-codes: "FNYSVGFKDLNESLNALEDQDLDG [A24G]"
  protein stability index: 3.68
- residue-codes: "FPYSVGFKDLNESLNALEDQDLDA [N2P]"
  protein stability index: 2.44
- residue-codes: "FNYSVGFKDLNESKNALEDQDLDA [L14K]"
  protein stability index: 4.48
- residue-codes: "FNYSVIFKDLNESLNALEDQDLDA [G6I]"
  protein stability index: 3.03
- residue-codes: "FNYSVGFKDLNESLNALEDQDLGA [D23G]"
  protein stability index: 4.41

Output protein stability index of FNYSVGFKDLMESLNALEDQDLDA [N11M]
3.68

Provide measured protein stability index value, entry: FNYSVGFKDLNRSLNALEDQDLDA [E12R]
3.92

Could you please provide reported protein stability index for FNYSVGFKDLNISLNALEDQDLDA [E12I] ? Thanks!
3.69

Tell me measured protein stability index for FNYSEGFKDLNESLNALEDQDLDA [V5E] please.
4.47

For the variant FNYSVGFKDLNESLNTLEDQDLDA [A16T] , report protein stability index.
4.57

Report measured protein stability index; entry is FNYSVGFKDLGESLNALEDQDLDA [N11G]
4.29

Could you please provide reported protein stability index for FNYSVGFKDLNESLNALEDKDLDA [Q20K] ? Thanks!
4.2

Supply measured protein stability index of FNYSVGFKDLNESLNALERQDLDA [D19R] in your reply.
3.67
